METHOD: protein stability index of a GFP-peptide fusion (yeast GPS) (PSI 1-4); higher = more stable; sorted into four equal gates, so the index is relative within each strain
CONDITION_DESCRIPTION: doa10∆
MEASURE: protein stability index

ENTRY_SEQUENCE | protein stability index
KETAPVIDTLAAGYGKI [RPL28] | 1.96

Kindly review the next sequence as well.
Prompt line: Recorded protein stability index for RSDGMGNVLLNATVVDS [YLR335W/NUP2] , please?
Response line: 3.44

----------
METHOD: protein stability index of a GFP-peptide fusion (yeast GPS) (PSI 1-4); higher = more stable; sorted into four equal gates, so the index is relative within each strain
CONDITION_DESCRIPTION: ubr1∆
The entries below come with measured protein stability index values attached.
Reply with the value as a number alone.

ENTRY_SEQUENCE | protein stability index
HIPICVTFSFFNPQDTE [RRP45] | 1.58

Prompt line: Recorded protein stability index for KETWLHELSSSHTSLVK [SRB8] , please?
Response line: 1.8

Prompt line: Recorded protein stability index for IETIGHLITKEEIMHGL [RPN5] , please?
Response line: 2.97

Prompt line: Recorded protein stability index for PQSAPNQMGMGTNNGMS [YOR098C/NUP1] , please?
Response line: 3.31

Prompt line: Recorded protein stability index for SPAALKQLASLKKSEEI [YMR153W/NUP53] , please?
Response line: 3.37
